tgt: LXRβ (Homo sapiens, UniProt P55055)
Construct: Co-transfection expression plasmids, comprising full-length LXRα (pCMX-h LXRα or LXRβ (pCMX-hLXRβ)); expressed in transfected cells; host or cells: CV-1 African green monkey kidney cells, transient transfection with pCMX-hLXRβ
Sequence (P55055 1-460): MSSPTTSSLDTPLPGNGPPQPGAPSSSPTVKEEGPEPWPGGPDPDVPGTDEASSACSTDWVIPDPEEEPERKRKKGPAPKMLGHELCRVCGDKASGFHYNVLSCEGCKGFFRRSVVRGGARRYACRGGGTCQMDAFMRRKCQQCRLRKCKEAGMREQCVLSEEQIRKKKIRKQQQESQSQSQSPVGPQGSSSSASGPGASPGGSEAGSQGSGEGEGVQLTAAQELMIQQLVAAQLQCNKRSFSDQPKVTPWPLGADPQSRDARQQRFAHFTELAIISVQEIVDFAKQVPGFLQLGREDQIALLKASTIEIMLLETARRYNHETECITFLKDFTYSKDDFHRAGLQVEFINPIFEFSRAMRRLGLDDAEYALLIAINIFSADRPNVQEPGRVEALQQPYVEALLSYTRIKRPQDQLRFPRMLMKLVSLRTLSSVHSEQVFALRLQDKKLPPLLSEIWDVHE
Sequence (P19793 1-462 partner): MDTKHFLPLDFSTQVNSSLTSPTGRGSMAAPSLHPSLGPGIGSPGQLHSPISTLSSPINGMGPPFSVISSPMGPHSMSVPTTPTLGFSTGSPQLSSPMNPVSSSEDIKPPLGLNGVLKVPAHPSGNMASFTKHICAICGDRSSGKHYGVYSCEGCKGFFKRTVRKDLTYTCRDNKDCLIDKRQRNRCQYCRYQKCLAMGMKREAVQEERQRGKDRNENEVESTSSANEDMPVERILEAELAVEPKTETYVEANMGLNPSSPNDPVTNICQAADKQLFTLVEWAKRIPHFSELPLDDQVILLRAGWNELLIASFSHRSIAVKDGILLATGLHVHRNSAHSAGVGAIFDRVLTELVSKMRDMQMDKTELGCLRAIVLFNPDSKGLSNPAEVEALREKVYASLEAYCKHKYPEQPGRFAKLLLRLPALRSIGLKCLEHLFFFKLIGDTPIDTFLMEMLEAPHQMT
measurement.notes: LXR/LXRE co-transfection assay (luciferase reporter) in CV-1 cells, LXRβ
Assay type: cell-based
stated.conditions: CV-1 cells, relative to maximum response of high control N-(3-((4-fluorophenyl)-(naphthalene-2-sulfonyl)amino)propyl)-2,2-dimethylpropionamide, read-out: LXRbeta % EFFICACY
endpoint.label: Emax (%)
Express the result in % but write the number alone.

Query block: I'd like to know its Emax. The compound in question is "Cc1nc(-c2ccc3c(c2)OC(F)(F)O3)c(-c2cc(-c3cccc(S(C)(=O)=O)c3)ccc2-n2cc(Cl)c(C(F)(F)F)n2)o1"
Result block: 71

Query block: Which measured Emax value corresponds to "COCC(F)(F)c1cc(-c2ccc(-c3cccc(S(C)(=O)=O)c3)cc2-n2nncc2-c2ccc(OC(F)(F)F)cc2)n(C)n1" ?
Result block: 89

Query block: Sample "Cc1nc(-c2cc(-c3cccc(S(C)(=O)=O)c3)ccc2-n2ccc(C(N)=O)n2)c(-c2ccc(OC(F)(F)F)cc2)o1" — what was its Emax?
Result block: 27

Query block: Need Emax, item "Cc1nc(-c2ccc(OC(F)(F)F)cc2)c(-c2cc(-c3cc(F)c(CO)c(S(C)(=O)=O)c3)ccc2-n2cc(C)c(C(F)(F)F)n2)o1"
Result block: 64

Query block: // returns reported Emax for input "CNS(=O)(=O)c1cccc(-c2ccc(-n3cc(Cl)c(C(F)(F)F)n3)c(-c3oc(C)nc3-c3cnc(OC)nc3)c2)c1"
Result block: 63

Further cases:
Query block: Fill in: Emax of "Cc1nc(-c2ccc(OC(F)(F)F)cc2)c(-c2cc(-c3cc(F)c(CO)c(S(C)(=O)=O)c3)ccc2-n2nc(C(F)(F)F)cc2Cl)o1" is ___
Result block: 57

Query block: Return reported Emax; argument: "Cc1nc(-c2ccc3c(c2)OC(F)(F)O3)c(-c2cc(-c3cc(F)c(CO)c(S(C)(=O)=O)c3)ccc2-c2cc(C(F)(F)c3nnco3)nn2C)o1"
Result block: 73

Query block: Item "Cc1nc(-c2ccc(OC(F)(F)F)cc2)c(-c2cc(-c3cccc(S(C)(=O)=O)c3)ccc2-n2ccc(CC#N)n2)o1" has what recorded Emax?
Result block: 99

Query block: Endpoint output: Emax of "Cc1nc(-c2ccc3c(c2)OC(F)(F)O3)c(-c2cc(-c3cccc(S(C)(=O)=O)c3)ccc2-n2ccc(C(N)=O)n2)o1" . Value?
Result block: 14

Query block: Name the recorded Emax for "Cc1nc(-c2ccc(Cl)cc2Cl)c(-c2cc(-c3cc(F)c(CO)c(S(C)(=O)=O)c3)ccc2-n2cc(Cl)c(C(F)(F)F)n2)o1" .
Result block: 60

Query block: Quick check: Emax of "Cc1nc(-c2ccc(OC(F)(F)F)cc2)c(-c2cc(-c3cc(F)c(CO)c(S(C)(=O)=O)c3)ccc2-n2ccc(C(C)(C)C#N)n2)o1" ?
Result block: 23

Query block: Which Emax is reported for this compound? "Cc1nc(-c2ccc3c(c2)OC(F)(F)O3)c(-c2cc(-c3cccc(S(C)(=O)=O)c3)ccc2-n2nc(C(F)(F)F)cc2C)o1"
Result block: 112

Query block: # lookup: Emax of "Cn1nc(C(F)(F)CNCCO)cc1-c1ccc(-c2cccc(S(C)(=O)=O)c2)cc1-n1nncc1-c1ccc(OC(F)(F)F)cc1"
Result block: 80
